Measured values drawn from patent EP2272817A1 for this set.

# Target or system: recombinant rat PAI-1 (Rattus norvegicus)
# Sequence (P20961 24-402): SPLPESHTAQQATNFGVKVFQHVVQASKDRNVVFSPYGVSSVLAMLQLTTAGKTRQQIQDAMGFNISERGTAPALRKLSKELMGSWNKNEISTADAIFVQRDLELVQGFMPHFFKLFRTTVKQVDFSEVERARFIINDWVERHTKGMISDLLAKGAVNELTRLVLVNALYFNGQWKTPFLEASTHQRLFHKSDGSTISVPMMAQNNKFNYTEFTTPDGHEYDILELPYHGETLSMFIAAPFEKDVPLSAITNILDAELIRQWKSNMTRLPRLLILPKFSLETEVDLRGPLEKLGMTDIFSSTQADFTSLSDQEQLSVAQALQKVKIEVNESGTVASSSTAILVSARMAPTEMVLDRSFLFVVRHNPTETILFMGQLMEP
# Measurement protocol: biochemical
# Cond: read-out: Inhibition Rate of PAI-1 Activity (%)
The following molecules are shown together with reported inhibition at 0.3 µM values.
Write down the numeric answer in % and omit the unit.

Molecule	Units label	inhibition at 0.3 µM
CC(C)(Oc1cc(-c2ccc(OC(F)(F)F)cc2)ccc1OCc1ccc(C(C)(C)C)cc1)C(=O)O	%	0
CC(C)(C)c1ccc(Oc2cc(-c3ccc(OC(F)(F)F)cc3)ccc2CCC(=O)O)cc1	%	0
Cc1cc(N(C)C)c(-c2ccc(OC(F)(F)F)cc2)cc1N(Cc1ccc(C(C)(C)C)cc1)C(=O)C(=O)O	%	2
CC(C)(C)c1ccc(Oc2cccc(-c3ccc(OC(F)(F)F)cc3)c2CCC(=O)O)cc1	%	0
CC(C)(C)c1ccc(COc2ccc(-c3ccc(OC(F)(F)F)cc3)cc2CCC(=O)O)cc1	%	5

State the recorded inhibition at 0.3 µM for this entry: `CC(C)(C)c1ccc(COc2cc(Oc3ccc(OC(F)(F)F)cc3)ccc2CCC(=O)O)cc1`
0

Please report the recorded inhibition at 0.3 µM for `CCCCOc1ccc(N(Cc2ccc(C(C)(C)C)cc2)C(=O)C(=O)O)cc1-c1ccc(OC(F)(F)F)cc1` .
2

Given the entry `CCC(CC)Oc1ccc(-c2ccc(OC(F)(F)F)cc2)cc1N(Cc1ccc(C(C)(C)C)cc1)C(=O)C(=O)O` , report its measured inhibition at 0.3 µM.
0
